assay: Drug excretion in Lai:COX (Standard)BR mouse urine at 17 mg/kg, po after 80 mins; assay type: ADME, organism-based; design: dose 17 mg/kg, route oral; settings: read-out: Drug excretion

{"columns": ["Compound", "dose excreted at 80 min, %"],
 "data": [
  ["Cc1nnc(SCC2=C(C(=O)OCOC(=O)C(C)(C)C)N3C(=O)[C@@H](NC(=O)[C@H](N)c4ccccc4)[C@H]3SC2)s1.Cl", 48.2],
  ["CC(=O)OCOC(=O)C1=C(CSc2nnc(C)s2)CS[C@@H]2[C@H](NC(=O)[C@H](N)c3ccccc3)C(=O)N12.Cl", 36.1],
  ["Cc1nnc(SCC2=C(C(=O)OC3OC(=O)c4ccccc43)N3C(=O)[C@@H](NC(=O)[C@H](N)c4ccccc4)[C@H]3SC2)s1.Cl (some centres undefined)", 30.5],
  ["Cc1nnc(SCC2=C(C(=O)O)N3C(=O)[C@@H](NC(=O)[C@H](N)c4ccccc4)[C@H]3SC2)s1", 17.5]
]}

###

experiment: Drug excretion in Lai:COX (Standard)BR mouse urine at 17 mg/kg, sc after 60 mins; assay type: ADME, organism-based; set-up: dose 17 mg/kg, route subcutaneous; conditions: read-out: Drug excretion

{"columns": ["Chem smiles", "dose excreted at 1 h / %"],
 "data": [
  ["Cc1nnc(SCC2=C(C(=O)O)N3C(=O)[C@@H](NC(=O)[C@H](N)c4ccccc4)[C@H]3SC2)s1", 50.7]
]}

###

test: Drug excretion in Lai:COX (Standard)BR mouse urine at 17 mg/kg, po after 5 mins; assay type: ADME, organism-based; parameters: dose 17 mg/kg, route oral; settings: read-out: Drug excretion

{"columns": ["Chem smiles", "dose excreted at 5 min"],
 "data": [
  ["Cc1nnc(SCC2=C(C(=O)OCOC(=O)C(C)(C)C)N3C(=O)[C@@H](NC(=O)[C@H](N)c4ccccc4)[C@H]3SC2)s1.Cl", "3.6%"]
]}

###

assay: Drug excretion in Lai:COX (Standard)BR mouse urine at 17 mg/kg, sc after 20 mins; format: ADME, organism-based; design: dose 17 mg/kg, route subcutaneous; details: read-out: Drug excretion

{"columns": ["Chem smiles", "dose excreted at 20 min"],
 "data": [
  ["Cc1nnc(SCC2=C(C(=O)O)N3C(=O)[C@@H](NC(=O)[C@H](N)c4ccccc4)[C@H]3SC2)s1", "25%"]
]}
